Reported TGI is given for each of the following compounds.
# Tested on: SW-620 colon
# Assay Name: NCI tumour cell line growth inhibition, 48 h

Some entries whose results are on file:
>>> readout_value("C1=C\\SS/C=C\\SS/1")
"> 100 µM"
>>> readout_value("CSC(=NCCc1c[nH]c2ccccc12)NC#N")
"> 100 µM"

Task: Give reported TGI value for O=C(Nc1noc(-c2ccccc2)n1)c1ccccc1CNc1noc(-c2ccccc2)n1
Output: > 100 µM

* * *

# Test system: SK-MEL-2 melanoma
# Assay Name: NCI tumour cell line growth inhibition, 48 h; in the data active means GI50 below about 0.43 µM; inactive means the rest
API: response.call in active, inactive

Sample answers from the record:
>>> category("O=C1OCC2=C1C(c1ccccc1)c1cc3c(cc1N2CCO)OCO3 (stereo unspecified)")
"inactive"
>>> category("CN1/C(=C\\C=C\\C2=[N+](C)c3ccccc3C2(C)C)C(C)(C)c2ccccc21")
"active"
>>> category("Nc1ccc(/C=C/C(=O)NCc2cc3cc(-c4ccc(C(=O)N5CCC(F)(F)CC5)cc4)cc(-c4ccc(F)cc4)c3o2)cn1")
"inactive"

Task: Test call for this compound, please: Cc1ccc(-c2nc3nc(-c4ccc(F)cc4)nc(N4CCCNCC4)c3o2)cc1
Output: inactive

Task: Test call for this compound, please: C[C@H]1CCCC(O)C(O)[C@@H]2C[C@H](O[Si](C)(C)C(C)(C)C)C[C@H]2[C@H](O[Si](C)(C)C(C)(C)C)C(O)C(O)C(=O)O1 (stereo partly specified)
Output: inactive

Task: Test call for this compound, please: COc1cc(NCCCCCCCNC(C)C)c2nccc(C)c2c1
Output: inactive

* * *

# Tested on: COLO 205 colon
# Assay Name: NCI tumour cell line growth inhibition, 48 h
Reported TGI is given for each of the following compounds.

>>> readout_value("CCOC(=O)c1nc2cc(C(F)(F)F)ccc2nc1Nc1ccc(C(=O)NC(C(=O)OCC)C(=O)OCC)cc1")
"> 100 µM"

The record that follows has no TGI shown yet.
Task: Give reported TGI value for CN(C)C(=O)O[C@H]1CN[C@H](C#Cc2cc3ncnc(Nc4ccc(OCc5cccc(F)c5)c(Cl)c4)c3s2)C1
Output: > 25 µM

* * *

Reported TGI is given for each of the following compounds.
# Test system: SK-MEL-5 melanoma
# Assay Name: NCI tumour cell line growth inhibition, 48 h

Some entries whose results are on file:
>>> readout_value("CCOC(=O)C1CCC(=O)N1C(=O)c1ccccc1 (centres undefined)")
"> 100 µM"
>>> readout_value("C/C(=N\\NC(=O)CC#N)c1c(O)cc(C)oc1=O")
"> 100 µM"
>>> readout_value("C[N+](C)(C)CC1CCCCC1O (centres undefined)")
"> 100 µM"

Task: Give reported TGI value for CN1CCN(c2cc3nsnc3c3nsnc23)CC1
Output: > 10 µM

* * *

# Tested on: DU-145 prostate
# Assay Name: NCI tumour cell line growth inhibition, 48 h
Observed Property: GI50

Some entries whose results are on file:
>>> readout_value("CCNC(=O)c1noc(-c2cc(C(C)C)c(O)cc2O)c1-c1ccc(CN2CCOCC2)cc1")
"< 0.0222 µM"
>>> readout_value("C=C1C(=O)O[C@H]2[C@H]1CC/C(C=Nc1c(N)cc(C(F)(F)F)cc1Br)=C\\CC[C@@]1(C)O[C@@H]21")
"1.48 µM"
>>> readout_value("CN(C)C(=O)O[C@H]1CN[C@H](C#Cc2cc3ncnc(Nc4ccc(OCc5cccc(F)c5)c(Cl)c4)c3s2)C1")
"9.76 µM"
>>> readout_value("O=C(N/N=C/c1ccccc1O)c1ccccc1")
"3.27 µM"

Task: Give reported GI50 value for C=C1C[C@@H]2CC[C@@]34C[C@H]5O[C@H]6[C@@H](O3)[C@H]3O[C@H](CC[C@@H]3O[C@H]6[C@@H]5O4)CC(=O)C[C@@H]3[C@@H](OC)[C@@H](C[C@H](O)CN)O[C@H]3C[C@H]3O[C@@H](CC[C@@H]1O2)C[C@@H](C)C3=C
Output: < 0.01 µM

Task: Give reported GI50 value for C=C(CN(C)C)C(=O)c1ccccc1[N+](=O)[O-]
Output: 15 µM

Task: Give reported GI50 value for CC(C)(C)c1cc(C=C(C#N)C#N)cc(C(C)(C)C)c1O
Output: 0.0894 µM

Task: Give reported GI50 value for CN1/C(=C\C=C\C2=[N+](C)c3ccccc3C2(C)C)C(C)(C)c2ccccc21
Output: 0.105 µM

Task: Give reported GI50 value for O=S(=O)(NCCCNc1nccc(-c2c(-c3ccc(F)cc3)nc3sccn23)n1)c1ccc2ccccc2c1
Output: 5.53 µM

Task: Give reported GI50 value for COc1ccc(OC)c(Cn2cc3c(c2-c2ccccc2)CCc2cnoc2-3)c1
Output: 17.4 µM

Origin of the recorded values: PubChem BioAssay (NCI)
